System: 565232-114-T-J1-PDC complex spheroid viability
Procedure details: Anticancer human tumor 565232-114-T-J1-PDC patient-derived bladder carcinoma cell line growth inhibition [CLK]
Protocol conditions: second compound 0.1 µM; first compound 0.0316 µM; stronger effect = lower value
Mark 1 (yes) for viability, T/C under 40%, 0 (no) if at or over.

Request: Hi there! Is viability, T/C for COC1C=CCC(C)C(C)S(=O)(=O)NC(=O)c2ccc3c(c2)N(CC2CCC21)CC1(CCCc2cc(Cl)ccc21)CO3 (stereo not given) + CNC(=O)c1ccc(Nc2nc(OC3CCCC3)c3c(-c4ccc5nc(C)oc5c4)c[nH]c3n2)c(OC)c1 below 40%, do you know?
Response: 0 (no)

Request: Hi there! Is viability, T/C for Cn1ncnc1[C@H]1c2n[nH]c(=O)c3cc(F)cc(c23)N[C@@H]1c1ccc(F)cc1 + CN1CCN(c2cc(C(=O)Nc3cc4cc(-c5cnn(C)c5)ccc4cn3)ccn2)CC1 below 40%, do you know?
Response: 0 (no)

Request: Hi there! Is viability, T/C for CC(CO)NC(=O)c1cc(-c2ccc(Cl)cc2)nn(-c2cnn(C)c2)c1=O (stereo not given) + CN1CCN(c2cc(C(=O)Nc3cc4cc(-c5cnn(C)c5)ccc4cn3)ccn2)CC1 below 40%, do you know?
Response: 0 (no)

Request: Hi there! Is viability, T/C for CC(=O)O[C@H]1C(=O)[C@@]2(C)[C@H]([C@H](OC(=O)c3ccccc3)[C@]3(O)C[C@H](OC(=O)[C@H](O)[C@@H](NC(=O)c4ccccc4)c4ccccc4)C(C)=C1C3(C)C)[C@]1(OC(C)=O)CO[C@@H]1C[C@@H]2O + CN1CCN(c2cc(C(=O)Nc3cc4cc(-c5cnn(C)c5)ccc4cn3)ccn2)CC1 below 40%, do you know?
Response: 1 (yes)

* * *

Tested on: 565232-114-T-J1-PDC complex spheroid viability
Procedure details: Anticancer human tumor 565232-114-T-J1-PDC cell line growth inhibition [CLK]; active means viability on the fitted dose curve at most 10% of control; inactive means the rest;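 note: spheroids exposed to compounds for 7 days before readout; 100% = DMSO vehicle wells with luminescence normalized to vehicle control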
Protocol conditions: second compound 3.16 µM; first compound 0.316 µM
Respond with a class label; see yes (1) (active), no (0) (inactive)

Request: Call for entry COc1ccc([C@@H](O)c2cc(-c3ncnc4cc(N5CCOCC5)ccc34)c(F)cc2Cl)nn1 + CNC(=O)c1ccc(Nc2nc(OC3CCCC3)c3c(-c4ccc5nc(C)oc5c4)c[nH]c3n2)c(OC)c1 :
Response: no (0)

Request: Call for entry CC1COCCN1c1cc(C2(S(C)(=N)=O)CC2)nc(-c2ccnc3[nH]ccc23)n1 (centres undefined) + CN1CCN(c2cc(C(=O)Nc3cc4cc(-c5cnn(C)c5)ccc4cn3)ccn2)CC1 :
Response: yes (1)

Request: Call for entry C=CC(=O)N1CCN(c2nc(=O)n(-c3c(C)ccnc3C(C)C)c3nc(-c4c(O)cccc4F)c(F)cc23)C(C)C1 (centres undefined) + CNC(=O)c1ccc(Nc2nc(OC3CCCC3)c3c(-c4ccc5nc(C)oc5c4)c[nH]c3n2)c(OC)c1 :
Response: no (0)

Request: Call for entry COc1c(OCCCN2CCOCC2)ccc2c3n(c(=NC(=O)c4cnc(N)nc4)nc12)CCN3 + CNC(=O)c1ccc(Nc2nc(OC3CCCC3)c3c(-c4ccc5nc(C)oc5c4)c[nH]c3n2)c(OC)c1 :
Response: yes (1)

* * *

Test system: 565232-114-T-J1-PDC complex spheroid viability
Procedure details: Anticancer human tumor 565232-114-T-J1-PDC cell line growth inhibition [CLK]; active = viability on the fitted dose curve at most 10% of control; inactive = the rest;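 note: spheroids exposed to compounds for 7 days before readout; 100% = DMSO vehicle wells with luminescence normalized to vehicle control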
Protocol conditions: second compound 0.316 µM; first compound 0.316 µM
Respond with a class label; see active, inactive

Request: Call for entry CC(CO)NC(=O)c1cc(-c2ccc(Cl)cc2)nn(-c2cnn(C)c2)c1=O (stereo unspecified) + CN1CCN(c2cc(C(=O)Nc3cc4cc(-c5cnn(C)c5)ccc4cn3)ccn2)CC1 :
Response: inactive

Request: Call for entry COc1ccc([C@@H](O)c2cc(-c3ncnc4cc(N5CCOCC5)ccc34)c(F)cc2Cl)nn1 + CN1CCN(c2cc(C(=O)Nc3cc4cc(-c5cnn(C)c5)ccc4cn3)ccn2)CC1 :
Response: inactive

Request: Call for entry CC1COCCN1c1cc(C2(S(C)(=N)=O)CC2)nc(-c2ccnc3[nH]ccc23)n1 (stereo unspecified) + CNC(=O)c1ccc(Nc2nc(OC3CCCC3)c3c(-c4ccc5nc(C)oc5c4)c[nH]c3n2)c(OC)c1 :
Response: inactive

Request: Call for entry CC(CO)NC(=O)c1cc(-c2ccc(Cl)cc2)nn(-c2cnn(C)c2)c1=O (stereo unspecified) + CNC(=O)c1ccc(Nc2nc(OC3CCCC3)c3c(-c4ccc5nc(C)oc5c4)c[nH]c3n2)c(OC)c1 :
Response: inactive

Request: Call for entry CCc1c2c(nc3ccc(O)cc13)-c1cc3c(c(=O)n1C2)COC(=O)[C@]3(O)CC + CN1CCN(c2cc(C(=O)Nc3cc4cc(-c5cnn(C)c5)ccc4cn3)ccn2)CC1 :
Response: active

Request: Call for entry Nc1ccn(C2OC(CO)C(O)C2(F)F)c(=O)n1 (stereo unspecified) + CNC(=O)c1ccc(Nc2nc(OC3CCCC3)c3c(-c4ccc5nc(C)oc5c4)c[nH]c3n2)c(OC)c1 :
Response: inactive

Request: Call for entry O=C(c1cc(Cc2n[nH]c(=O)c3ccccc23)ccc1F)N1CCN(C(=O)C2CC2)CC1 + CN1CCN(c2cc(C(=O)Nc3cc4cc(-c5cnn(C)c5)ccc4cn3)ccn2)CC1 :
Response: inactive

Request: Call for entry CCCS(=O)(=O)Nc1ccc(F)c(C(=O)c2c[nH]c3ncc(-c4ccc(Cl)cc4)cc23)c1F + CNC(=O)c1ccc(Nc2nc(OC3CCCC3)c3c(-c4ccc5nc(C)oc5c4)c[nH]c3n2)c(OC)c1 :
Response: inactive

Request: Call for entry Nc1ccccc1NC(=O)c1ccc(CNC(=O)OCc2cccnc2)cc1 + CNC(=O)c1ccc(Nc2nc(OC3CCCC3)c3c(-c4ccc5nc(C)oc5c4)c[nH]c3n2)c(OC)c1 :
Response: inactive

Request: Call for entry COc1c(OCCCN2CCOCC2)ccc2c3n(c(=NC(=O)c4cnc(N)nc4)nc12)CCN3 + CNC(=O)c1ccc(Nc2nc(OC3CCCC3)c3c(-c4ccc5nc(C)oc5c4)c[nH]c3n2)c(OC)c1 :
Response: inactive

Request: Call for entry COc1cccc2c1C(=O)c1c(O)c3c(c(O)c1C2=O)CC(O)(C(=O)CO)CC3OC1CC(N)C(O)C(C)O1 (stereo unspecified) + CNC(=O)c1ccc(Nc2nc(OC3CCCC3)c3c(-c4ccc5nc(C)oc5c4)c[nH]c3n2)c(OC)c1 :
Response: active

Just for reference, PubChem BioAssay AID2060612 is where these values come from.
